The reported measurements were obtained from ChEMBL document CHEMBL3352373.

# System: A549
# Experiment notes: Cytotoxic activity against human A549 cells after 24 hrs by MTT assay
# Assay type: functional, cell-based
# Recorded conditions: A549, 24 h
Measured parameter: IC50 (µM)
Answer in µM, number only, no unit symbol.

Please tell me the measured IC50 for C[C@]12CC[C@H]3[C@@H](CC=C4C[C@@H](O)CC[C@@]43C)[C@@H]1CC[C@@H]2C(=O)C#Cc1cccc(C(F)(F)F)c1 ; system: A549. 29.3

Please tell me the measured IC50 for C[C@]12CC[C@H]3[C@@H](CC=C4C[C@@H](O)CC[C@@]43C)[C@@H]1CC[C@@H]2C(=O)C#Cc1ccccc1C(F)(F)F ; system: A549. 15.8
